Exercise: state measured Hygroscopicity 2 weeks 93 % rh for each of the compounds provided.
assay_summary: Hygroscopicity studies (water content after storage at 43 %, 75 % and 93 % relative humidity)
Format: physicochemical
condition_notes: 2 weeks at 93 % rh; % Equilibrium moisture content; ss = semi solid state of sample; β = solid first changed into liquid and solidified again
Structures can show the parent of a compound that is named as a salt.
Report the value in % with no unit label.

Record summary for N[C@@H](CC(=O)N1CCn2c(nnc2C(F)(F)F)C1)Cc1cc(F)c(F)cc1F [N: Mesylate II] : reported Hygroscopicity 2 weeks 93 % rh = 4.04

Input N[C@@H](CC(=O)N1CCn2c(nnc2C(F)(F)F)C1)Cc1cc(F)c(F)cc1F [J: Mesylate II] . Output Hygroscopicity 2 weeks 93 % rh: 3.23

Short answer for N[C@@H](CC(=O)N1CCn2c(nnc2C(F)(F)F)C1)Cc1cc(F)c(F)cc1F [Q : HCl II] : Hygroscopicity 2 weeks 93 % rh was 0.83

Notebook: N[C@@H](CC(=O)N1CCn2c(nnc2C(F)(F)F)C1)Cc1cc(F)c(F)cc1F [K: Mesylate I] , Hygroscopicity 2 weeks 93 % rh read as 0.96

Recorded Hygroscopicity 2 weeks 93 % rh (compound N[C@@H](CC(=O)N1CCn2c(nnc2C(F)(F)F)C1)Cc1cc(F)c(F)cc1F [M: Phosphate] ): 3.73

compound N[C@@H](CC(=O)N1CCn2c(nnc2C(F)(F)F)C1)Cc1cc(F)c(F)cc1F [O: Sulfate II] , Hygroscopicity 2 weeks 93 % rh observed: 7.33

Recorded values, source patent EP2915814A2.
